Measured solubility kinetic values are reported for all entries that follow.
- method summary: Kinetic aqueous solubility of the compound by charged aerosol detection method
- Assay type: physicochemical
- settings: buffer; read-out: Kinetic_solubility
property: solubility kinetic (µM)

CCCCNC(=O)C[C@@H]1NC(=O)[C@H](C(C)C)NC(=O)[C@@H](CC(C)C)NC(=O)[C@H](CC(C)C)NC(=O)[C@H](Cc2c[nH]c3ccccc23)NC(=O)[C@@H](CCCN)NC1=O = 146
CC(C)C[C@@H]1NC(=O)[C@H](Cc2c[nH]c3ccccc23)NC(=O)[C@@H](CCCN)NC(=O)[C@H](CC(=O)N2CCCCC2)NC(=O)[C@H](C(C)C)NC(=O)[C@@H](CC(C)C)NC1=O = 107

----------
The molecules listed here are annotated with their CLH.
- method summary: Intrinsic clearance in mouse liver microsomes
- Type: ADME, microsome
property: CLH

CCCCNC(=O)C[C@@H]1NC(=O)[C@H](C(C)C)NC(=O)[C@@H](CC(C)C)NC(=O)[C@H](CC(C)C)NC(=O)[C@H](Cc2c[nH]c3ccccc23)NC(=O)[C@@H](CCCN)NC1=O = 1.19 mL/min/g
CC[C@H](C)[C@@H]1NC(=O)[C@@H](CC(C)C)NC(=O)[C@H](CC(C)C)NC(=O)[C@H](Cc2c[nH]c3ccccc23)NC(=O)[C@@H](CCCN)NC(=O)[C@H](CC(N)=O)NC1=O = < 0.48 mL/min/g
CC(C)C[C@@H]1NC(=O)[C@H](Cc2c[nH]c3ccccc23)NC(=O)[C@@H](CCCN)NC(=O)[C@H](CC(=O)NCc2ccccc2)NC(=O)[C@H](C(C)C)NC(=O)[C@@H](CC(C)C)NC1=O = 0.73 mL/min/g
CC(C)C[C@@H]1NC(=O)[C@H](Cc2c[nH]c3ccccc23)NC(=O)[C@@H](CCCN)NC(=O)[C@H](CC(=O)N2CCC(Oc3ccc(OC(F)(F)F)cc3)CC2)NC(=O)[C@H](C(C)C)NC(=O)[C@@H](CC(C)C)NC1=O = < 0.48 mL/min/g
CC(C)C[C@@H]1NC(=O)[C@H](Cc2c[nH]c3ccccc23)NC(=O)[C@@H](CCCN)NC(=O)[C@H](CC(=O)N2CCCCC2)NC(=O)[C@H](C(C)C)NC(=O)[C@@H](CC(C)C)NC1=O = < 0.48 mL/min/g
CC[C@@H](C)[C@@H]1NC(=O)[C@@H](CC(C)C)NC(=O)[C@H](CC(C)C)NC(=O)[C@H](Cc2c[nH]c3ccccc23)NC(=O)[C@@H](CCCN)NC(=O)[C@H](CC(N)=O)NC1=O = < 0.48 mL/min/g

----------
The reader will find reported Papp values listed item by item below.
- method summary: Permeability of the compound by PAMPA
- Assay type: ADME
- settings: read-out: permeability
property: Papp

CCCCNC(=O)C[C@@H]1NC(=O)[C@H](C(C)C)NC(=O)[C@@H](CC(C)C)NC(=O)[C@H](CC(C)C)NC(=O)[C@H](Cc2c[nH]c3ccccc23)NC(=O)[C@@H](CCCN)NC1=O = < 1 ×10⁻⁶ cm/s
CC[C@@H](C)[C@@H]1NC(=O)[C@@H](CC(C)C)NC(=O)[C@H](CC(C)C)NC(=O)[C@H](Cc2c[nH]c3ccccc23)NC(=O)[C@@H](CCCN)NC(=O)[C@H](CC(N)=O)NC1=O = < 1 ×10⁻⁶ cm/s
CC(C)C[C@@H]1NC(=O)[C@H](Cc2c[nH]c3ccccc23)NC(=O)[C@@H](CCCN)NC(=O)[C@H](CC(=O)N2CCC(Oc3ccc(OC(F)(F)F)cc3)CC2)NC(=O)[C@H](C(C)C)NC(=O)[C@@H](CC(C)C)NC1=O = 8.7 ×10⁻⁶ cm/s
CC(C)C[C@@H]1NC(=O)[C@H](Cc2c[nH]c3ccccc23)NC(=O)[C@@H](CCCN)NC(=O)[C@H](CC(=O)NCc2ccccc2)NC(=O)[C@H](C(C)C)NC(=O)[C@@H](CC(C)C)NC1=O = < 1 ×10⁻⁶ cm/s
CC(C)C[C@@H]1NC(=O)[C@H](Cc2c[nH]c3ccccc23)NC(=O)[C@@H](CCCN)NC(=O)[C@H](CC(=O)N2CCCCC2)NC(=O)[C@H](C(C)C)NC(=O)[C@@H](CC(C)C)NC1=O = < 1 ×10⁻⁶ cm/s

Source listed as ChEMBL document CHEMBL4229459.
